experiment: Solubility of the compound in water
Format: physicochemical
measurementContext: buffer
assayEndpoint: solubility

INSERT INTO results (compound, assayendpoint, result) VALUES
  ('Cl.O=C(CC1c2ccccc2C(=O)N1c1ccc([N+](=O)[O-])cn1)N1CCN(c2ccc(Cl)cc2)CC1 (stereo unspecified)', 'solubility', 'Soluble'),
  ('CN1CCN(C(=O)CC2c3ccccc3C(=O)N2c2ccccn2)CC1.Cl (stereo unspecified)', 'solubility', 'Soluble'),
  ('CN1CCN(C(=O)CC2c3ccccc3C(=O)N2c2ccc(Br)cn2)CC1.Cl (stereo unspecified)', 'solubility', 'Soluble'),
  ('CN1CCN(C(=O)CC2c3ccccc3C(=O)N2c2ccc(Cl)cn2)CC1.Cl (stereo unspecified)', 'solubility', 'Soluble'),
  ('COc1ccc(N2CCN(C(=O)CC3c4ccccc4C(=O)N3c3ccc([N+](=O)[O-])cn3)CC2)cc1.Cl (stereo unspecified)', 'solubility', 'Soluble'),
  ('CN1CCN(C(=O)CC2c3ccccc3C(=O)N2c2ccc(N)cn2)CC1.Cl (stereo unspecified)', 'solubility', 'Soluble'),
  ('CN1CCN(C(=O)CC2c3ccccc3C(=O)N2c2ccc([N+](=O)[O-])cn2)CC1.Cl (stereo unspecified)', 'solubility', 'Soluble'),
  ('Cl.O=C(CC1c2ccccc2C(=O)N1c1ccc([N+](=O)[O-])cn1)N1CCN(c2ccc(F)cc2)CC1 (stereo unspecified)', 'solubility', 'Soluble'),
  ('Cc1ccc(N2CCN(C(=O)CC3c4ccccc4C(=O)N3c3ccc([N+](=O)[O-])cn3)CC2)cc1.Cl (stereo unspecified)', 'solubility', 'Soluble'),
  ('Cc1ccc(N2C(=O)c3ccccc3C2CC(=O)N2CCN(C)CC2)nc1.Cl (stereo unspecified)', 'solubility', 'Soluble'),
  ('Cl.O=C(CC1c2ccccc2C(=O)N1c1ccc([N+](=O)[O-])cn1)N1CCN(c2ccccc2)CC1 (stereo unspecified)', 'solubility', 'Soluble');
